measured property: melting point

See these solved cases before continuing.
CC(C)(C)OC(=O)N1c2ccccc2CC1C(=O)O (centres undefined) :: 121 to 122 °C
O=C(NCCCCc1ccccc1)c1cc([N+](=O)[O-])cc([N+](=O)[O-])c1 :: 165 to 167 °C
NC(=S)CSc1ccccc1 :: 88 to 91 °C
CCOC(=O)C1CCN(c2ncnc3ccsc23)CC1 :: 64 to 66 °C

Query compound follows.
Query block: What value of melting point has been reported for the following compound? O=C(O)c1ccnc(N2CCCCC2)c1
Result block: 167 to 168 °C

###

Listed below: melting point values for each entry.

See these solved cases before continuing.
O=C(O)CCSCCCSCCC(=O)O :: 107 to 109 °C
Nc1ncnc2c1ncn2C1CC(O)C(CO)O1 (centres undefined) :: 185 to 187 °C
Nc1ccc(Cl)cc1C(=O)NCc1cccs1 :: 157 to 158 °C

Query compound follows.
Query block: What value of melting point has been reported for the following compound? Nc1nonc1N
Result block: 178 to 183 °C

###

measured property: melting point

See these solved cases before continuing.
O=Cc1ccc(F)c(Cl)c1 :: 28 to 30 °C
CCOC(=O)C(=O)CC(C)=O :: 16 to 18 °C
CSCCC(N)CO (centres undefined) :: 31 to 36 °C
Cc1cnnc2ccc3nonc3c12 :: 171 to 173 °C
Nc1ccc(Cn2ccnc2)cc1 :: 128 to 130 °C

Query block: What value of melting point has been reported for the following molecule? Cc1nc(/C(C#N)=C\c2ccc(Cl)cc2Cl)sc1/N=N/c1ccc(F)cc1
Result block: 138 to 140 °C

Query block: What value of melting point has been reported for the following molecule? Cc1cc(C)c(S(=O)(=O)n2cnc([N+](=O)[O-])n2)c(C)c1
Result block: 132 to 134 °C

Query block: What value of melting point has been reported for the following molecule? CC1(C)C=[N+]([O-])C(C)(C)C1
Result block: 53 to 59 °C

Query block: What value of melting point has been reported for the following molecule? Cc1nonc1C
Result block: -7 °C

Query block: What value of melting point has been reported for the following molecule? O=[N+]([O-])c1ccc(C2Nn3c(COc4ccccc4)nnc3S2)cc1 (centres undefined)
Result block: 184 °C

Query block: What value of melting point has been reported for the following molecule? NC(=O)c1cccc(C(F)(F)F)c1
Result block: 124 °C

Query block: What value of melting point has been reported for the following molecule? NS(=O)(=O)Cc1ccccc1
Result block: 103 °C

###

Listed below: melting point values for each entry.

See these solved cases before continuing.
Nc1c(I)cc(I)cc1C(=O)O :: 241 to 243 °C
O=c1[nH]c2ccc(Cl)cc2o1 :: 192 to 193 °C

Query compound follows.
Query block: What value of melting point has been reported for the following compound? O=C(O)c1ccc2c(c1)OCCO2
Result block: 133 to 137 °C

###

Listed below: melting point values for each entry.

CN(CC(=O)O)CC(=O)O :: 218 to 221 °C
CSc1nc(N=Cc2ccc([N+](=O)[O-])cc2)nn1C :: 194 to 196 °C
OC1OC(c2ccccc2)Cc2ccccc21 (configuration not stated) :: 100 to 103 °C
CCOC(=O)CCC(C)C1CCC2C3C=CC4CC(OC(C)=O)CCC4(C)C3CC(OC(C)=O)C12C (configuration not stated) :: 83 to 84 °C
CC(C)(C)c1ccc(-c2cc(N)c(C(N)=O)s2)cc1 :: 244 to 248 °C
Cc1ccc(N(C)C(=S)Cl)cc1 :: 56 to 59 °C

Query compound follows.
Query block: What value of melting point has been reported for the following compound? Cc1ccc(Cc2c(N)n[nH]c2N)cc1
Result block: 173 to 175 °C

###

measured property: melting point

See these solved cases before continuing.
O=C1Nc2ccccc2C=NC2CCCCC2N=Cc2ccccc2NC(=O)O1 (configuration not stated) :: 253 to 255 °C
NC(=NO)c1c(Cl)cccc1Cl :: 163 to 166 °C
O=c1[nH]c2scc(-c3ccccc3)c2c(=O)n1-c1cccc(Cl)c1 :: 269 to 270 °C
O=[N+]([O-])c1ccc(CSc2ncnc3c2ncn3C2OC(CO)C(O)C2O)cc1 (configuration not stated) :: 194 to 196 °C
CCCCCCCC[C@@H](O)CO :: 60 to 62 °C

Query block: What value of melting point has been reported for the following compound? O=C(O)c1sc2sccc2c1Cl
Result block: 252 to 258 °C

Query block: What value of melting point has been reported for the following compound? O=C(O)c1cnccn1
Result block: 222 to 225 °C

###

measured property: melting point

See these solved cases before continuing.
CN(C)c1ccc(CCC2CCc3ccccc3N2)cc1 (stereo not given) :: 68 to 68.5 °C
Fc1c(F)c(F)c(Br)c(F)c1F :: -31 °C
Cc1ccc(O)c(C(C)C)c1 :: 36.5 °C

Query block: What value of melting point has been reported for the following compound? CCOC(=O)C1(c2ccccc2)CCN(C)CC1
Result block: 270 °C

Query block: What value of melting point has been reported for the following compound? O=[N+]([O-])c1cc2c3ccccc3ccc2c2ccccc12
Result block: 210 to 213 °C

###

measured property: melting point

NC1C2CCC(C2)C1C(=O)O (centres undefined) :: 275 to 278 °C
CCOO :: -100 °C
N=C(N)c1ccc(Oc2ccc(C(=N)N)cc2)cc1 :: 216 °C
CCOC(=O)C1=C(C)NC(C)=C(C(=O)OCC)C1c1ccccc1 :: 157 °C

Query block: What value of melting point has been reported for the following molecule? Cc1onc(-c2c(Cl)cccc2Cl)c1CO
Result block: 107 to 109 °C

Query block: What value of melting point has been reported for the following molecule? CC12CCC(/C(=C/N(OC(=O)c3ccc([N+](=O)[O-])cc3)c3ccccc3)C1=O)C2(C)C (centres undefined)
Result block: 180 °C

Query block: What value of melting point has been reported for the following molecule? CC12CCC(O)CC1=CCC1C2CCC2(C)C1CCC2(O)C#CCl (centres undefined)
Result block: 175 to 177 °C

Query block: What value of melting point has been reported for the following molecule? CSc1nc(=O)n(CCO)c2c1CCC2
Result block: 193 to 195 °C

Query block: What value of melting point has been reported for the following molecule? CCCc1c(O)ccc(C(C)=O)c1N
Result block: 95 to 97 °C

Query block: What value of melting point has been reported for the following molecule? Cc1nc(-c2ccc(S(=O)(=O)N3CCOCC3)cc2)c(-c2ccc(S(=O)(=O)N3CCOCC3)cc2)o1
Result block: 245 to 248 °C

Query block: What value of melting point has been reported for the following molecule? Nc1ncc([N+](=O)[O-])cc1Br
Result block: 214 to 218 °C

Query block: What value of melting point has been reported for the following molecule? O=[N+]([O-])c1ccc(C=Cc2ccc(C=Cc3ccc([N+](=O)[O-])cc3[N+](=O)[O-])cc2)c([N+](=O)[O-])c1
Result block: 294 °C

Query block: What value of melting point has been reported for the following molecule? COP(=S)(OC)Oc1ccc([N+](=O)[O-])cc1Cl
Result block: 52.5 °C

Query block: What value of melting point has been reported for the following molecule? CC(C)(C)OC(=O)N1CCN(c2ccc(CO)cn2)CC1
Result block: 112 to 115 °C

Query block: What value of melting point has been reported for the following molecule? COC(=O)c1scc(C#N)c1-n1cccc1
Result block: 87 to 90 °C

Query block: What value of melting point has been reported for the following molecule? O=C(O)CCN1CCNCC1
Result block: 71 to 86 °C

Query block: What value of melting point has been reported for the following molecule? Cc1cc([N+](=O)[O-])c[nH]c1=O
Result block: 230 to 234 °C

Query block: What value of melting point has been reported for the following molecule? O=Cc1cccc(-c2nccs2)c1
Result block: 67 to 68 °C

Query block: What value of melting point has been reported for the following molecule? NC(=S)NN=Cc1ccccc1
Result block: 154 to 156 °C

###

measured property: melting point (°C)

CC1(C)CC(=O)C(Cl)C(=O)C1 :: 163
Nc1cc(Cl)cc(C(=O)O)c1Cl :: 200

(A) ONc1ccccc1
(B) c1ccc(Cc2nc3ccccc3[nH]2)cc1
(C) O=Cc1ccc(N2CCCCC2)nc1
(D) Sc1ccccc1S
Query block: Please rank these compounds by melting point in descending order. List the labels in the requested order.
Result block: B, A, C, D
(B: 187 °C, A: 83.5 °C, C: 43 °C, D: 28.5 °C)

###

Listed below: melting point values for each entry.

See these solved cases before continuing.
CC(C)NC(=O)CN1CCNCC1 :: 82 to 88 °C
O=C(CCl)N(c1ccccc1)C1CCCCC1 :: 103 to 105 °C
O=Cc1cccc(O)c1O :: 104 to 109 °C

Query compound follows.
Query block: What value of melting point has been reported for the following compound? O=C1CSCC(=O)O1
Result block: 94 to 97 °C
